# test details: restoration of touch response, mutant HTT neurons – whole organism, C. elegans mechanosensory neurons, N-terminal huntingtin (AID 1599)
# condition set: C. elegans polyQ-huntingtin mechanosensory neurons, stronger effect = higher value
Potency and affinity values are given separately.
// label = true if rescue above control is not less than 0, otherwise false

Solved entries (count: 6):
> print(dat)
                                   molecule  label
1     CCC1(C)CC(=O)NC1=O (stereo not drawn)   true
2                        C[n+]1ccccc1/C=N/O   true
3  COc1ccc2cc3[n+](cc2c1OC)CCc1cc2c(cc1-3)OCO2   true
4  CC(C)(Oc1ccc(CCNC(=O)c2ccc(Cl)cc2)cc1)C(=O)O  false
5               O=C1c2ccccc2C(=O)C1c1ccccc1   true
6  CC(=O)OCC1=C(C(=O)O)N2C(=O)[C@@H](NC(=O)CSc3ccncc3)[C@H]2SC1  false

Input line: Check if rescue above control >= 0 (inclusive). Item: `NC(N)=NCCN1CCCCCCC1`
Output line: false

Input line: Check if rescue above control >= 0 (inclusive). Item: `Cn1cnc2c1c(=O)[nH]c(=O)n2C`
Output line: false

Input line: Check if rescue above control >= 0 (inclusive). Item: COCCc1ccc(OCC(O)CNC(C)C)cc1 (stereo not drawn)
Output line: false

Input line: Check if rescue above control >= 0 (inclusive). Item: `N[C@@H](Cc1ccc(O)c(O)c1)C(=O)O`
Output line: true

Input line: Check if rescue above control >= 0 (inclusive). Item: `CCCCOc1ccc(C(=O)CCN2CCCCC2)cc1`
Output line: true

----------
# Test system: F380Y/beta1
# test details: BK channel mutant inhibitors and activators – cell-based, U2OS BacMam, thallium flux, beta subunits, selectivity assay, profiling panel (AID 1259406);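 further: initial slope of Thallos dye fluorescence rise after thallium is added; log ratio against the mean of 0.3% DMSO vehicle wells on the same plate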
# condition set: U2OS BacMam BK variants, at 30 µM
Calls of active or inactive are those of the source.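 Rule for the calls: active = thallium flux through the channel raised or lowered by more than 3 SD from vehicle-only wells, actives on both sides; inactive = the rest.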
Choose one outcome from this list and give only that: active, inactive

Solved entries (count: 5):
> print(dat)
                                   compound     label
1  Cc1nc2n(c(=O)c1CCN1CCC(c3noc4cc(F)ccc34)CC1)CCCC2  inactive
2  COc1ccc2nc(S(=O)Cc3ncc(C)c(OC)c3C)[nH]c2c1 (stereo not drawn)  inactive
3  CC(C)NCC(O)COc1ccc(COCCOC(C)C)cc1 (stereo not drawn)  inactive
4  O=C1CC2(CCCC2)CC(=O)N1CCCCN1CCN(c2ncccn2)CC1  inactive
5  COC(=O)C1=C(C)NC(C)=C(C(=O)OC(C)C)C1c1cccc2nonc12 (stereo not drawn)    active

Input line: Assay result, entry Oc1ccc(C2CNCCc3c2cc(O)c(O)c3Cl)cc1 (stereo not drawn) — outcome?
Output line: inactive

Input line: Assay result, entry CCOC(=O)C1=C(C)NC(C)=C(C(=O)OC)C1c1cccc(Cl)c1Cl (stereo not drawn) — outcome?
Output line: inactive

Input line: Assay result, entry `CN(C/C=C/C#CC(C)(C)C)Cc1cccc2ccccc12` — outcome?
Output line: inactive

----------
# test details: viability loss in pontine glioma line – cell-based, SU-DIPG-XIII, MIPE5.0, CellTiter-Glo, qHTS, dose response (AID 1347064);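 on AC50: cells exposed to compound for 48 hours before the viability read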
# condition set: CellTiter-Glo ATP luminescence
Records with an inconclusive call do not appear. Active and inactive are the calls of the source. The limit is not given here; nearly all actives have AC50 up to about 23 µM.
Choose one outcome from this list and give only that: T for active, F for inactive

> print(dat)
                                   compound  label
1  CCCN(CCC)C(=O)C(CCC(=O)O)NC(=O)c1ccccc1 (stereo not given)      F
2  CCOc1cc(N)c(Cl)cc1C(=O)NCC1CN(Cc2ccc(F)cc2)CCO1 (stereo not given)      F
3            CN(Cc1cc(Br)cc(Br)c1N)C1CCCCC1      T
4                    CNC[C@H](O)c1cccc(O)c1      F
5  CCN1CCCC1CNC(=O)c1cc(S(=O)(=O)CC)c(N)cc1OC (stereo not given)      F

Input line: Assay result, entry `C[C@]12CC[C@@H]3c4ccc(O)cc4CC[C@H]3[C@@H]1C[C@@H](O)[C@@H]2O` — outcome?
Output line: F

Input line: Assay result, entry `O=c1c(-c2ccc(O)cc2)coc2cc(O)cc(O)c12` — outcome?
Output line: F

Input line: Assay result, entry Cc1ccc(S(=O)(=O)NC(=O)NN2CC3CCCC3C2)cc1 (stereo not given) — outcome?
Output line: F

Input line: Assay result, entry CCC1(C)CC(=O)NC1=O (stereo not given) — outcome?
Output line: F

Input line: Assay result, entry `O=C(O)CCNC(=O)c1ccc(N=Nc2ccc(O)c(C(=O)O)c2)cc1` — outcome?
Output line: F

Input line: Assay result, entry `Cc1cc(C(C)(C)C)cc(C)c1CC1=NCCN1` — outcome?
Output line: F

Input line: Assay result, entry `O=c1oc2c(O)c(O)cc3c(=O)oc4c(O)c(O)cc1c4c23` — outcome?
Output line: F

Input line: Assay result, entry `O=c1oc2cc(O)ccc2s1` — outcome?
Output line: F

Input line: Assay result, entry `Cn1cnc2c1c(=O)[nH]c(=O)n2C` — outcome?
Output line: F

Input line: Assay result, entry C1CCC(C(CC2CCCCN2)C2CCCCC2)CC1 (stereo not given) — outcome?
Output line: T

Input line: Assay result, entry `COc1ncnc(NS(=O)(=O)c2ccc(N)cc2)c1OC` — outcome?
Output line: F

Input line: Assay result, entry `CN(C)c1ccc2nc3ccc(=[N+](C)C)cc-3sc2c1` — outcome?
Output line: T

Input line: Assay result, entry `NC(=O)c1ncn([C@@H]2O[C@H](CO)[C@@H](O)[C@H]2O)n1` — outcome?
Output line: F

----------
# test details: GLP1 release stimulators, primary, NCI-H716, NPC library (AID 1117341)
# condition set: NCI-H716 cells, at 10 µM
Calls of active or inactive are those of the source.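 The calls were made as follows: active = compound raises GLP1 secretion from the human gut endocrine cells, with no numeric limit stated; inactive = the rest.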
Choose one outcome from this list and give only that: active, inactive

> print(dat)
                                   compound     label
1                  O=C(O)c1cc(=O)c2ccccc2o1  inactive
2      N#Cc1ccc(C(c2ccc(C#N)cc2)n2cncn2)cc1  inactive
3  COc1ccccc1N1CCN(CC(O)COc2cccc3ccccc23)CC1 (configuration not stated)  inactive

Input line: Assay result, entry `CCCC(C(=O)OCCN(CC)CC)(c1ccccc1)c1ccccc1` — outcome?
Output line: inactive

Input line: Assay result, entry `Clc1ccc2c(c1)CCc1cccnc1C2=C1CCNCC1` — outcome?
Output line: active

Input line: Assay result, entry `COc1ccc(C(=O)c2ccccc2O)c(O)c1` — outcome?
Output line: inactive

Input line: Assay result, entry `COc1cc(C)nc(-n2nc(C)cc2OC)n1` — outcome?
Output line: inactive

----------
Quick reference: nuclear beta-catenin stimulation of the listed items.
# test details: Wnt pathway potentiators raising nuclear beta-catenin – imaging, WNT3A-conditioned medium, mouse C2C12, NPC library, primary screen (AID 1117326)
# condition set: stimulation, at 2 µM, stronger effect = higher value
Answer format: numeric, % implied, no suffix.

Observe how each entry below is paired with its result.
> print(dat)
                                  compound                      measure.name  test.value
1     CN(C/C=C/C#CC(C)(C)C)Cc1cccc2ccccc12  nuclear beta-catenin stimulation         2.6
2           O=C1NCC2(CCN(CCc3ccccc3)CC2)O1  nuclear beta-catenin stimulation         1.5
3      CN(C)CC[C@@H](c1ccc(Br)cc1)c1ccccn1  nuclear beta-catenin stimulation        -0.3
4                       Cc1cccc(C(=O)O)c1O  nuclear beta-catenin stimulation         0.4
5  Cc1nc(-c2ccc(OCC(C)C)c(C#N)c2)sc1C(=O)O  nuclear beta-catenin stimulation         0.4

// switching to the query compound
nuclear beta-catenin stimulation measured on CCCCN(CCCC)CCC(O)c1cc2c(Cl)cc(Cl)cc2c2cc(C(F)(F)F)ccc12 (stereo unspecified) = 0.7

----------
# test details: galactose survival enhancers in mitochondrial complex I cybrids – cell-based, galactose medium, ATP luminescence, primary screen (AID 1645843);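 further: positive z means more ATP and so rescue of galactose-driven cybrid death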
# condition set: complex I mutant cybrid cells, 72 h, stronger effect = higher value
measure name: z-score
Give the figure only, with no unit attached.

> print(dat)
                                   molecule  test.value
1            O=C1NCC2(CCN(CCc3ccccc3)CC2)O1       0.155
2  CC(=O)N(O)CCCCCNC(=O)CCC(=O)N(O)CCCCCNC(=O)CCC(=O)N(O)CCCCCN        0.76
3     COc1cc(NS(=O)(=O)c2ccc(N)cc2)nc(OC)n1      -0.135

// switching to the query molecule
z-score measured on COc1ccnc(CS(=O)c2nc3ccc(OC(F)F)cc3[nH]2)c1OC (stereo not drawn) = 1.18
